Test system: HT-1080 cells
Experiment: HT-1080 cell viability assay (ferroptosis induced by RSL3, Cell Titer-Glo)
Assay type: cell-based
Conditions: Homo sapiens, HT-1080, 20 h, ferroptosis inducer RSL3, 20 hours, ferroptosis inhibitory activity, Table 2
measurement label: EC50

[[record]]
compound = "CN1CCN(CC(=O)N2CCC(Nc3ccc(C(C)(C)C)cc3)CC2)C(=O)C1"
system_tested = "HT-1080 cells"
measurement = "1000 to 10000 nM"


Value of measured EC50 for the entry `CC(C)(C)c1ccc(NCCN2CCCC2)cc1` : 1000 to 10000 nM

Entry COCCc1ccc(NC2CCC(N)CC2)cc1CCOC (stereo not drawn) ; EC50 = 1000 to 10000 nM

Please fill in: EC50 reported for CCCCCCc1cc(NC2CCC(N)CC2)ccc1C(C)(C)C (stereo not drawn) [Compound 253A] = 0.1 to 100 nM

The recorded EC50 for entry CNCC1CC(Nc2ccc(C(C)(C)C)cc2)C1 (stereo not drawn) equals 1000 to 10000 nM

Record Cc1nc(N2CCSCC2)ccc1NC1CC2(CC(N)C2)C1 (stereo not drawn) . Reported EC50: 0.1 to 100 nM
